assay: Cytotoxicity against African green monkey Vero cells after 72 hrs by MTT assay; format: toxicity, cell-based; conditions: chlorocebus sabaeus
MEASURED_ATTRIBUTE: CC50 at 72 h (µg/mL)
Reply numerically in µg/mL, unit not repeated.

Output measured CC50 at 72 h for this item: COc1cc2oc(-c3ccc(O)cc3O)c(CC=C(C)C)c(=O)c2c(O)c1/C=C/C(C)C [ARTOCARPIN]
80

----------
assay: Selectivity index, ratio of CC50 for African green monkey Vero cells to MIC for Staphylococcus aureus ATCC 29213; assay type: toxicity; conditions: read-out: Selectivity Index
MEASURED_ATTRIBUTE: selectivity ratio
Write the number on its own, no unit after it.

Output measured selectivity ratio for this item: COc1cc2oc(-c3ccc(O)cc3O)c(CC=C(C)C)c(=O)c2c(O)c1/C=C/C(C)C [ARTOCARPIN]
40

----------
Quick reference: log10 of MIC of the listed items.
test system: Staphylococcus aureus; test: microbe, parasite or virus in culture; conditions: ATCC 29213
Description: Antibacterial activity against Staphylococcus aureus ATCC 29213 assessed as reduction in bacterial growth incubated for 16 to 18 hrs by broth microdilution method
Could you please treat all values as log10 of MIC in µg/mL?

Output measured log10 of MIC for this item: COc1cc2oc(-c3ccc(O)cc3O)c(CC=C(C)C)c(=O)c2c(O)c1/C=C/C(C)C [ARTOCARPIN]
0.30

Output measured log10 of MIC for this item: CC(C)(O/N=C(\C(=O)N[C@@H]1C(=O)N2C(C(=O)[O-])=C(C[n+]3ccccc3)CS[C@H]12)c1csc(N)n1)C(=O)O [CEFTAZIDIME]
1.20

Output measured log10 of MIC for this item: C[C@@H](O)[C@H]1C(=O)N2C(C(=O)O)=C(S[C@@H]3CN[C@H](C(=O)N(C)C)C3)[C@H](C)[C@H]12 [MEROPENEM]
0.00

Output measured log10 of MIC for this item: C[C@H]1COc2c(N3CCN(C)CC3)c(F)cc3c(=O)c(C(=O)O)cn1c23.C[C@H]1COc2c(N3CCN(C)CC3)c(F)cc3c(=O)c(C(=O)O)cn1c23.O [LEVOFLOXACIN]
-0.90

Output measured log10 of MIC for this item: CCCCCCCCCC(=O)N[C@@H](Cc1c[nH]c2ccccc12)C(=O)N[C@H](CC(N)=O)C(=O)N[C@@H](CC(=O)O)C(=O)N[C@@H]1C(=O)NCC(=O)N[C@@H](CCCN)C(=O)N[C@@H](CC(=O)O)C(=O)N[C@H](C)C(=O)N[C@@H](CC(=O)O)C(=O)NCC(=O)N[C@H](CO)C(=O)N[C@@H]([C@H](C)CC(=O)O)C(=O)N[C@@H](CC(=O)c2ccccc2N)C(=O)O[C@@H]1C
0.00

Output measured log10 of MIC for this item: CN(C)c1ccc(O)c2c1C[C@H]1C[C@H]3[C@H](N(C)C)C(O)=C(C(N)=O)C(=O)[C@@]3(O)C(O)=C1C2=O [MINOCYCLINE]
-0.60

Output measured log10 of MIC for this item: CO[C@H]1/C=C/O[C@@]2(C)Oc3c(C)c(O)c4c(O)c(c(/C=N/N5CCN(C)CC5)c(O)c4c3C2=O)NC(=O)/C(C)=C\C=C\[C@H](C)[C@H](O)[C@@H](C)[C@@H](O)[C@@H](C)[C@H](OC(C)=O)[C@@H]1C [RIFAMPIN]
-2.11
